Target: Human MDM2 (HDM2) 1-116 (Homo sapiens, UniProt Q00987)
Construct: Human MDM2 (HDM2) 1-116
Sequence (Q00987 1-116): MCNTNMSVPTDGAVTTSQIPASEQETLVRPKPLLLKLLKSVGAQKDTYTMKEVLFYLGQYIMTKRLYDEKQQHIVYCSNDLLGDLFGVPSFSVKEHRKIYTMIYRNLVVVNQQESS
Experiment: Fluorescence polarization assay 2, MDM2 (Table 4)
Assay type: binding
Settings: Table 4; fluorescence polarization; read-out: MDM2 IC50
pIC50: −log10 of the molar value. Non-standard residues stand in square brackets, D forms with d. Residues, ends and D or L forms follow the SMILES beside them. Ala(4-thiazolyl) = N[C@@H](Cc1cscn1)C(=O)O; NMePhe(4-F) = CN[C@@H](Cc1ccc(F)cc1)C(=O)O; Phe(4-Cl) = N[C@@H](Cc1ccc(Cl)cc1)C(=O)O; Phe(4-F) = N[C@@H](Cc1ccc(F)cc1)C(=O)O; NMeF = CN[C@@H](Cc1ccccc1)C(=O)O; Tle = CC(C)(C)[C@H](N)C(=O)O; hSer = N[C@@H](CCO)C(=O)O; NMeA = CN[C@@H](C)C(=O)O; dNMeA = CN[C@H](C)C(=O)O; Abu = CC[C@H](N)C(=O)O; Nme = COCCNCC(=O)O
Documented pIC50 across a set of molecules

Study these solved cases before continuing.
**Query** Query pIC50 for COCC[C@@H]1NC(=O)[C@H]2CCCN2C(=O)[C@H](Cc2ccccc2)N(C)C(=O)[C@H](Cc2ccc(Cl)cc2)NC(=O)[C@H](C)N(C)C(=O)[C@H](Cc2ccc(F)cc2)NC(=O)CN(CCOC)C(=O)[C@@H](C)N(C)C(=O)[C@H](Cc2cscn2)NC(=O)[C@H](C)N(C)C1=O [Compound 40] (cyclo([Ala(4-thiazolyl)][dNMeA][Nme][Phe(4-F)][NMeA][Phe(4-Cl)][NMeF][dP][hSer](Me)[NMeA]))
**Result** 7.30 to 7.60

**Query** Dear colleague, please send me the reported pIC50 for COCC[C@@H]1NC(=O)[C@H]2CCCN2C(=O)[C@H](Cc2ccc(F)cc2)N(C)C(=O)[C@H](Cc2ccc(Cl)cc2)NC(=O)[C@H](C(C)(C)C)NC(=O)[C@H](Cc2ccc(F)cc2)NC(=O)CN(CCOC)C(=O)[C@@H](C)N(C)C(=O)[C@H](Cc2cscn2)NC(=O)[C@H](C)N(C)C1=O [Compound 37] (cyclo([Ala(4-thiazolyl)][dNMeA][Nme][Phe(4-F)][Tle][Phe(4-Cl)][NMePhe(4-F)][dP][hSer](Me)[NMeA])) when you can.
**Result** 7.30 to 7.60

The record that follows has no pIC50 shown yet.
**Query** Input CC[C@@H]1NC(=O)[C@H](Cc2ccc(F)cc2)NC(=O)CN(CCOC)C(=O)[C@@H](C)N(C)C(=O)[C@H](Cc2cscn2)NC(=O)[C@H](C)N(C)C(=O)[C@H](CCOC)NC(=O)[C@H]2CCCN2C(=O)[C@H](Cc2ccccc2)N(C)C(=O)[C@H](Cc2ccc(Cl)cc2)NC1=O [Compound 42] (cyclo([Abu][Phe(4-Cl)][NMeF][dP][hSer](Me)[NMeA][Ala(4-thiazolyl)][dNMeA][Nme][Phe(4-F)])) , output reported pIC50.
**Result** 7.30 to 7.60

Ref: patent US20220411471A1
